Experiment: Rat 28-day GLP repeat dose PO study (toxicokinetics)
Format: in vivo
Conditions: male, rat, in vivo, po, 2000 mg/kg, Day 28, M, 2000 mg/kg PO
Structures can show the parent of a compound that is named as a salt.
REPORTED PROPERTY: AUC(0-inf) (µg·h/mL)
I only need the number, in µg·h/mL, no unit after it.

Q: Recorded AUC(0-inf) of CC1(C)SC(Nc2ccccc2O)=N[C@@H]1C(=O)O [Compound 1, mono-hydrochloride] , please.
A: 731

----------
Experiment: Dog pharmacokinetics after single PO (10 mg/kg) and IV (3 mg/kg) dose
Type: in vivo
Settings: male, dog, plasma, oral, 10 mg/kg, 10 mg/kg PO vs 3 mg/kg IV; read-out: mean oral bioavailability
Counter-ions that a name gives are not always drawn.
REPORTED PROPERTY: bioavailability (%)
I only need the number, in %, no unit after it.

Q: Recorded bioavailability of CC1(C)SC(Nc2ccccc2O)=N[C@@H]1C(=O)O [Compound 1, mono-hydrochloride] , please.
A: 72

----------
Test: Dog 7-day repeat dose PO study
Assay type: in vivo
Conditions: female, plasma, 200 mg/kg, Day 7, 200 mg/kg PO, F, N = 1
Where a name gives a salt, the structure may show the parent alone.
REPORTED PROPERTY: Cmax (µg/mL)
I only need the number, in µg/mL, no unit after it.

Q: Recorded Cmax of CC1(C)SC(Nc2ccccc2O)=N[C@@H]1C(=O)O [Compound 1, mono-hydrochloride] , please.
A: 103

----------
Assay: Dog 28-day repeat dose PO study
Format: in vivo
Conditions: female, beagle, dog, in vivo, po, 400 mg/kg, Day 15, 400 mg/kg PO, F; read-out: Cmax
Counter-ions that a name gives are not always drawn.
REPORTED PROPERTY: Cmax (µg/mL)
I only need the number, in µg/mL, no unit after it.

Q: Recorded Cmax of CC1(C)SC(Nc2ccccc2O)=N[C@@H]1C(=O)O [Compound 1, mono-hydrochloride] , please.
A: 123

----------
Experiment: Log D distribution coefficient (PBS buffer/octanol)
Format: physicochemical
Settings: pH 7.2, pH 7.2, 2 mL PBS Buffer: 2 mL Octanol
Counter-ions that a name gives are not always drawn.
REPORTED PROPERTY: logD

Q: Recorded logD of CC1(C)SC(Nc2ccccc2O)=N[C@@H]1C(=O)O [Compound 1, mono-hydrochloride] , please.
A: -0.39

----------
Test: Rat 28-day GLP repeat dose PO study (toxicokinetics)
Format: in vivo
Details: male, rat, in vivo, po, 2000 mg/kg, Day 1, M, 2000 mg/kg PO
Counter-ions that a name gives are not always drawn.
REPORTED PROPERTY: AUC(0-inf)
Answer format reminder: number followed by unit.

Q: Recorded AUC(0-inf) of CC1(C)SC(Nc2ccccc2O)=N[C@@H]1C(=O)O [Compound 1, mono-hydrochloride] , please.
A: 771 µg·h/mL

----------
Test: Dog 7-day repeat dose PO study
Type: in vivo
Details: female, plasma, 400 mg/kg, Day 7, 400 mg/kg PO, F, N = 1
Where a name gives a salt, the structure may show the parent alone.
REPORTED PROPERTY: AUC(0-t) (µg·h/mL)
I only need the number, in µg·h/mL, no unit after it.

Q: Recorded AUC(0-t) of CC1(C)SC(Nc2ccccc2O)=N[C@@H]1C(=O)O [Compound 1, mono-hydrochloride] , please.
A: 751

----------
Assay: Rat 28-day GLP repeat dose PO study (toxicokinetics)
Assay type: in vivo
Settings: both sexes, rat, in vivo, po
Structures can show the parent of a compound that is named as a salt.
REPORTED PROPERTY: half-life

Q: Recorded half-life of CC1(C)SC(Nc2ccccc2O)=N[C@@H]1C(=O)O [Compound 1, mono-hydrochloride] , please.
A: 3 to 8 h

----------
Test: Dog 7-day repeat dose PO study
Type: in vivo
Conditions: male, plasma, 200 mg/kg, Day 7, 200 mg/kg PO, M, N = 1
Counter-ions that a name gives are not always drawn.
REPORTED PROPERTY: Tmax (h)
I only need the number, in h, no unit after it.

Q: Recorded Tmax of CC1(C)SC(Nc2ccccc2O)=N[C@@H]1C(=O)O [Compound 1, mono-hydrochloride] , please.
A: 1

----------
Assay: Rat 28-day GLP repeat dose PO study (toxicokinetics)
Format: in vivo
Settings: male, rat, in vivo, po, 1000 mg/kg, Day 28, M, 1000 mg/kg PO
Where a name gives a salt, the structure may show the parent alone.
REPORTED PROPERTY: AUC (µg·h/mL)
I only need the number, in µg·h/mL, no unit after it.

Q: Recorded AUC of CC1(C)SC(Nc2ccccc2O)=N[C@@H]1C(=O)O [Compound 1, mono-hydrochloride] , please.
A: 334

----------
Assay: Dog 7-day repeat dose PO study
Format: in vivo
Settings: male, plasma, 200 mg/kg, Day 1, 200 mg/kg PO, M, N = 1
Counter-ions that a name gives are not always drawn.
REPORTED PROPERTY: Cmax (µg/mL)
I only need the number, in µg/mL, no unit after it.

Q: Recorded Cmax of CC1(C)SC(Nc2ccccc2O)=N[C@@H]1C(=O)O [Compound 1, mono-hydrochloride] , please.
A: 150

----------
Experiment: Rat 28-day GLP repeat dose PO study (toxicokinetics)
Assay type: in vivo
Conditions: female, rat, in vivo, po, 2000 mg/kg, Day 14, F, 2000 mg/kg PO; read-out: Cmax
Counter-ions that a name gives are not always drawn.
REPORTED PROPERTY: Cmax (µg/mL)
I only need the number, in µg/mL, no unit after it.

Q: Recorded Cmax of CC1(C)SC(Nc2ccccc2O)=N[C@@H]1C(=O)O [Compound 1, mono-hydrochloride] , please.
A: 127

----------
Experiment: Rat 28-day GLP repeat dose PO study (toxicokinetics)
Assay type: in vivo
Conditions: male, rat, in vivo, po, 2000 mg/kg, Day 14, M, 2000 mg/kg PO; read-out: V/F (Vss/F)
Counter-ions that a name gives are not always drawn.
REPORTED PROPERTY: Vd/F (L/kg)
I only need the number, in L/kg, no unit after it.

Q: Recorded Vd/F of CC1(C)SC(Nc2ccccc2O)=N[C@@H]1C(=O)O [Compound 1, mono-hydrochloride] , please.
A: 15.1

----------
Assay: Rat pharmacokinetics after single PO dose
Details: female, Sprague Dawley (CD IGS, Crl:CD(SD)), rat, plasma, po, 100 mg/kg
Structures can show the parent of a compound that is named as a salt.
REPORTED PROPERTY: concentration at 24 h
Answer format reminder: number followed by unit.

Q: Recorded concentration at 24 h of CC1(C)SC(Nc2ccccc2O)=N[C@@H]1C(=O)O [Compound 1, mono-hydrochloride] , please.
A: 378 ng/mL

----------
Assay: Dog 7-day repeat dose PO study
Format: in vivo
Settings: female, plasma, 400 mg/kg, Day 7, 400 mg/kg PO, F, N = 1
Structures can show the parent of a compound that is named as a salt.
REPORTED PROPERTY: half-life (h)
I only need the number, in h, no unit after it.

Q: Recorded half-life of CC1(C)SC(Nc2ccccc2O)=N[C@@H]1C(=O)O [Compound 1, mono-hydrochloride] , please.
A: 2.5

----------
Assay: Dog single oral dose MTD study
Assay type: in vivo
Conditions: female, dog, plasma; 250 mg/kg PO (Dose 1; Day 1), 2 h, F, N = 2; read-out: Average Compound 1 Concentration in dog plasma
Where a name gives a salt, the structure may show the parent alone.
REPORTED PROPERTY: concentration at 2 h (ng/mL)
I only need the number, in ng/mL, no unit after it.

Q: Recorded concentration at 2 h of CC1(C)SC(Nc2ccccc2O)=N[C@@H]1C(=O)O [Compound 1, mono-hydrochloride] , please.
A: 46000

----------
Molecular target: CYP2C19 (Homo sapiens)
Construct: tissue BD Gentest; host or cells: human liver microsomes
Sequence (P33261 whole entry): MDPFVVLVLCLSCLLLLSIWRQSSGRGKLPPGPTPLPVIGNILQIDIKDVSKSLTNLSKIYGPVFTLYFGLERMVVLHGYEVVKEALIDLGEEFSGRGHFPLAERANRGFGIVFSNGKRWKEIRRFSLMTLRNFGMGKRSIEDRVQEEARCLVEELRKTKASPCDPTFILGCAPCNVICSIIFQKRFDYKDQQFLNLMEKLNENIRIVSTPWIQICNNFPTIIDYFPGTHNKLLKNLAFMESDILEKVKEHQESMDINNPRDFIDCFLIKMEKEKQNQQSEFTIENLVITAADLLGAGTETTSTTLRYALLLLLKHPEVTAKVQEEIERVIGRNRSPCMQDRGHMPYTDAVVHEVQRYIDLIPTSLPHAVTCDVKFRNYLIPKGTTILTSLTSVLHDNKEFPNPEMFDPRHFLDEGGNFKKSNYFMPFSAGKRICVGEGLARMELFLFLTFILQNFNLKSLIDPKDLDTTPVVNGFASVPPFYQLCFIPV
Assay: CYP inhibition in human liver microsomes
Assay type: in vitro ADME
Settings: CYP2C19; read-out: IC50
pIC50: −log10 of the molar value. Structures can show the parent of a compound that is named as a salt.
REPORTED PROPERTY: pIC50

Q: Recorded pIC50 of CC1(C)SC(Nc2ccccc2O)=N[C@@H]1C(=O)O [Compound 1, mono-hydrochloride] , please.
A: < 4.00

----------
Assay: in vivo
Conditions: male, Sprague Dawley, rat, po, 100 mg/kg, Compound 1 Concentration in rat plasma, 100 mg/kg single PO, 2 h post-dose, Average
Counter-ions that a name gives are not always drawn.
REPORTED PROPERTY: concentration at 2 h (ng/mL)
I only need the number, in ng/mL, no unit after it.

Q: Recorded concentration at 2 h of CC1(C)SC(Nc2ccccc2O)=N[C@@H]1C(=O)O [Compound 1, mono-hydrochloride] , please.
A: 14300

----------
Assay: Rat pharmacokinetics after single PO dose
Conditions: male, Sprague Dawley, rat, plasma, po, 100 mg/kg
Where a name gives a salt, the structure may show the parent alone.
REPORTED PROPERTY: concentration at 8 h (ng/mL)
I only need the number, in ng/mL, no unit after it.

Q: Recorded concentration at 8 h of CC1(C)SC(Nc2ccccc2O)=N[C@@H]1C(=O)O [Compound 1, mono-hydrochloride] , please.
A: 2110
